Origin of values: ChEMBL document CHEMBL1129647

EXPERIMENT DESCRIPTION: Bioavailability at an iv dose of 12 mg/Kg and po dose of 23 mg/Kg
Format: ADME, organism-based
ASSAY CONTEXT: rat, in vivo, read-out: Bioavailabiility
MEASURED QUANTITY: bioavailability (%)

[[record]]
compound = "CCNc1cccnc1N1CCN(C(=O)c2cc3cc(OC)ccc3[nH]2)CC1.CS(=O)(=O)O [ATEVIRDINE SULPHATE]"
display_unit = "%"
result = 75


====

SYSTEM NAME: Human immunodeficiency virus type 1 reverse transcriptase (Human immunodeficiency virus 1, UniProt Q72547)
EXPERIMENT DESCRIPTION: Compound was tested for inhibition of HIV-1 WT reverse transcriptase using dTTP as substrate
Listing of recorded Ki by entry.
MEASURED QUANTITY: Ki (nM)

[[record]]
entry_smiles = "CCN(c1ncccc1NC(C)(C)C)C1CCN(C(=O)c2cc3cc(NS(C)(=O)=O)ccc3[nH]2)CC1"
result = 1030

[[record]]
entry_smiles = "CCN(c1nc(F)ccc1NC(C)(C)C)C1CCN(C(=O)c2cc3cc(NC(=O)N4CCN(C)CC4)ccc3[nH]2)CC1"
result = 1260

